Reference for the values: paper PMC11324046

protocol.summary: WST-1 proliferation assay, MRC-5
Type: cell-based
cond: human, MRC-5 cells (normal lung fibroblasts), vs 0.1% DMSO control = 100%, mean ± standard deviation
Listing of recorded viability at 48 h, 100 µM by entry.
measured.quantity: viability at 48 h, 100 µM (%)

>>> numeric_value("NCCCNCCS [WR1065, reference compound]")
3
>>> numeric_value("OCCN1CCN(CC(O)COc2cc(Cl)c(Cl)cc2Cl)CC1 (stereo not shown)")
15
>>> numeric_value("NCCCNCCSP(=O)(O)O [WR2721, amifostine, reference compound]")
8
>>> numeric_value("COc1cc([N+](=O)[O-])ccc1OCC(O)CN1CCN(CCO)CC1 (stereo not shown)")
111
>>> numeric_value("OCCN1CCN(CC(O)COc2cccc(Cl)c2)CC1 (stereo not shown)")
97
>>> numeric_value("OCCN1CCN(CC(O)COc2ccc(F)cc2)CC1 (stereo not shown)")
103
>>> numeric_value("O=[N+]([O-])c1cc(OCC(O)CN2CCN(CCO)CC2)ccc1Cl (stereo not shown)")
98
>>> numeric_value("OCCN1CCN(CC(O)COc2ccc(Oc3ccc(F)cc3)cc2)CC1 (stereo not shown)")
0
>>> numeric_value("O=[N+]([O-])c1ccc(OCC(O)CN2CCN(CCO)CC2)c(F)c1 (stereo not shown)")
103
>>> numeric_value("COc1ccc(OCC(O)CN2CCN(CCO)CC2)c([N+](=O)[O-])c1 (stereo not shown)")
105

###

protocol.summary: in vitro
cond: male, human
measured.quantity: viability at 48 h, 200 µM (%)

>>> numeric_value("NCCCNCCS [WR1065, reference compound]")
21
>>> numeric_value("O=[N+]([O-])c1ccc(OCC(O)CN2CCN(CCO)CC2)c(F)c1 (stereo not shown)")
92
>>> numeric_value("O=[N+]([O-])c1cc(OCC(O)CN2CCN(CCO)CC2)ccc1Cl (stereo not shown)")
107
>>> numeric_value("OCCN1CCN(CC(O)COc2cccc(Cl)c2)CC1 (stereo not shown)")
96
>>> numeric_value("COc1cc([N+](=O)[O-])ccc1OCC(O)CN1CCN(CCO)CC1 (stereo not shown)")
102
>>> numeric_value("OCCN1CCN(CC(O)COc2ccc(F)cc2)CC1 (stereo not shown)")
110
>>> numeric_value("COc1ccc(OCC(O)CN2CCN(CCO)CC2)c([N+](=O)[O-])c1 (stereo not shown)")
99

###

protocol.summary: Ex vivo cytotoxicity on PBMCs, MTS colorimetric assay
cond: male, human, peripheral blood mononuclear cells (PBMCs)
measured.quantity: viability at 48 h, 20 µM (%)

>>> numeric_value("NCCCNCCSP(=O)(O)O [WR2721, amifostine, reference compound]")
75

###

protocol.summary: WST-1 proliferation assay, PANC-1
Type: cell-based
cond: human, PANC-1 cells (pancreas epithelioid carcinoma), vs 0.1% DMSO control = 100%, mean ± standard deviation
measured.quantity: viability at 48 h, 100 µM (%)

>>> numeric_value("O=[N+]([O-])c1cc(OCC(O)CN2CCN(CCO)CC2)ccc1Cl (stereo not shown) [Compound 5]")
100
>>> numeric_value("OCCN1CCN(CC(O)COc2ccc(Oc3ccc(F)cc3)cc2)CC1 (stereo not shown) [Compound 7]")
55
>>> numeric_value("NCCCNCCSP(=O)(O)O [WR2721, amifostine, reference compound]")
8
>>> numeric_value("OCCN1CCN(CC(O)COc2cc(Cl)c(Cl)cc2Cl)CC1 (stereo not shown) [Compound 8]")
101
>>> numeric_value("OCCN1CCN(CC(O)COc2cccc(Cl)c2)CC1 (stereo not shown) [Compound 6]")
94
>>> numeric_value("NCCCNCCS [WR1065, reference compound]")
3
>>> numeric_value("COc1cc([N+](=O)[O-])ccc1OCC(O)CN1CCN(CCO)CC1 (stereo not shown) [Compound 1]")
108
>>> numeric_value("O=[N+]([O-])c1ccc(OCC(O)CN2CCN(CCO)CC2)c(F)c1 (stereo not shown) [Compound 3]")
90
>>> numeric_value("COc1ccc(OCC(O)CN2CCN(CCO)CC2)c([N+](=O)[O-])c1 (stereo not shown) [Compound 2]")
104
>>> numeric_value("OCCN1CCN(CC(O)COc2ccc(F)cc2)CC1 (stereo not shown) [Compound 4]")
97

###

Listing of recorded viability at 48 h, 20 µM by entry.
protocol.summary: in vitro
cond: male, human
Protocol: To represent the overall inhibitory activity of each compound, viability was calculated as the mean of at least three independent measurements. The purpose was to determine the optimal non-toxic concentration for subsequent use in radioprotection tests. Whole blood from a healthy donor was diluted 1 : 1 with Dulbecco's phosphate buffered saline (Sigma-Aldrich, St. Louis, MO, USA). […] At the end, the cells were counted using Türk's solution. […]
measured.quantity: viability at 48 h, 20 µM (%)

>>> numeric_value("NCCCNCCS [WR1065, reference compound]")
47
>>> numeric_value("COc1ccc(OCC(O)CN2CCN(CCO)CC2)c([N+](=O)[O-])c1 (stereo not shown) [Compound 2]")
100
>>> numeric_value("COc1cc([N+](=O)[O-])ccc1OCC(O)CN1CCN(CCO)CC1 (stereo not shown) [Compound 1]")
110
>>> numeric_value("O=[N+]([O-])c1ccc(OCC(O)CN2CCN(CCO)CC2)c(F)c1 (stereo not shown) [Compound 3]")
95
>>> numeric_value("OCCN1CCN(CC(O)COc2cccc(Cl)c2)CC1 (stereo not shown) [Compound 6]")
96
>>> numeric_value("OCCN1CCN(CC(O)COc2ccc(F)cc2)CC1 (stereo not shown) [Compound 4]")
103
>>> numeric_value("O=[N+]([O-])c1cc(OCC(O)CN2CCN(CCO)CC2)ccc1Cl (stereo not shown) [Compound 5]")
99

###

protocol.summary: WST-1 proliferation assay, A549
Assay type: cell-based
cond: human, A549 cells (lung carcinoma), vs 0.1% DMSO control = 100%, mean ± standard deviation
Listing of recorded viability at 48 h, 100 µM by entry.
measured.quantity: viability at 48 h, 100 µM (%)

>>> numeric_value("O=[N+]([O-])c1ccc(OCC(O)CN2CCN(CCO)CC2)c(F)c1 (centres unmarked)")
106
>>> numeric_value("OCCN1CCN(CC(O)COc2cc(Cl)c(Cl)cc2Cl)CC1 (centres unmarked)")
92
>>> numeric_value("OCCN1CCN(CC(O)COc2ccc(F)cc2)CC1 (centres unmarked)")
112
>>> numeric_value("NCCCNCCSP(=O)(O)O [WR2721, amifostine, reference compound]")
5
>>> numeric_value("OCCN1CCN(CC(O)COc2cccc(Cl)c2)CC1 (centres unmarked)")
99

###

protocol.summary: WST-1 proliferation assay, Jurkat
Assay type: cell-based
cond: human, Jurkat cells (acute T-cell leukemia), vs 0.1% DMSO control = 100%, mean ± standard deviation
# Criterion met = viability at 48 h, 100 µM below 90% (exclusive); Criterion not met = viability at 48 h, 100 µM at/above 90%

>>> class_name("O=[N+]([O-])c1cc(OCC(O)CN2CCN(CCO)CC2)ccc1Cl (stereo not shown) [Compound 5]")
"Criterion met"
>>> class_name("NCCCNCCS [WR1065, reference compound]")
"Criterion met"
>>> class_name("OCCN1CCN(CC(O)COc2ccc(Oc3ccc(F)cc3)cc2)CC1 (stereo not shown) [Compound 7]")
"Criterion met"
>>> class_name("OCCN1CCN(CC(O)COc2ccc(F)cc2)CC1 (stereo not shown) [Compound 4]")
"Criterion not met"
>>> class_name("OCCN1CCN(CC(O)COc2cc(Cl)c(Cl)cc2Cl)CC1 (stereo not shown) [Compound 8]")
"Criterion met"
>>> class_name("NCCCNCCSP(=O)(O)O [WR2721, amifostine, reference compound]")
"Criterion met"
>>> class_name("COc1ccc(OCC(O)CN2CCN(CCO)CC2)c([N+](=O)[O-])c1 (stereo not shown) [Compound 2]")
"Criterion not met"

###

protocol.summary: WST-1 proliferation assay, HT-29
Type: cell-based
cond: human, HT-29 cells (colorectal adenocarcinoma), vs 0.1% DMSO control = 100%, mean ± standard deviation
Procedure: A thorough analysis of antiproliferative activity was performed across various cell culture types representing different histotypes: leukemia (Jurkat, MOLT-4), lung adenocarcinoma (A549), colorectal adenocarcinoma (HT-29), pancreatic carcinoma (PANC-1), breast adenocarcinoma (MCF-7), osteosarcoma (SAOS-2), and one non-cancerous cell line (fetal lung fibroblasts MRC-5). The cell lines were exposed to the newly synthesized compounds at a concentration of 100 μM for 48 h in a single-dose treatment. […]
Listing of recorded viability at 48 h, 100 µM by entry.
measured.quantity: viability at 48 h, 100 µM (%)

>>> numeric_value("OCCN1CCN(CC(O)COc2ccc(Oc3ccc(F)cc3)cc2)CC1 (stereo not shown)")
12
>>> numeric_value("NCCCNCCS [WR1065, reference compound]")
20
>>> numeric_value("O=[N+]([O-])c1ccc(OCC(O)CN2CCN(CCO)CC2)c(F)c1 (stereo not shown)")
94
>>> numeric_value("NCCCNCCSP(=O)(O)O [WR2721, amifostine, reference compound]")
27
>>> numeric_value("OCCN1CCN(CC(O)COc2cccc(Cl)c2)CC1 (stereo not shown)")
85
>>> numeric_value("COc1cc([N+](=O)[O-])ccc1OCC(O)CN1CCN(CCO)CC1 (stereo not shown)")
141
>>> numeric_value("OCCN1CCN(CC(O)COc2cc(Cl)c(Cl)cc2Cl)CC1 (stereo not shown)")
33
>>> numeric_value("OCCN1CCN(CC(O)COc2ccc(F)cc2)CC1 (stereo not shown)")
99
>>> numeric_value("COc1ccc(OCC(O)CN2CCN(CCO)CC2)c([N+](=O)[O-])c1 (stereo not shown)")
103
>>> numeric_value("O=[N+]([O-])c1cc(OCC(O)CN2CCN(CCO)CC2)ccc1Cl (stereo not shown)")
95
